test: Physical stability at elevated temperatures (impurities by HPLC); type: physicochemical; conditions: ambient conditions; hydrochloride
Structures can show the parent of a compound that is named as a salt.
parameter.measured: Total impurities at ambient conditions

| molecule | parameter.measured | readout.value |
| --- | --- | --- |
| CN(C)c1cc(NC(=O)CNC(C)(C)C)c(O)c2c1C[C@H]1C[C@H]3[C@H](N(C)C)C(O)=C(C(N)=O)C(=O)[C@@]3(O)C(O)=C1C2=O [B (xHCl), Tigecycline hydrochloride] | Total impurities at ambient conditions | 1.91% |
| CN(C)c1cc(NC(=O)CNC(C)(C)C)c(O)c2c1C[C@H]1C[C@H]3[C@H](N(C)C)C(O)=C(C(N)=O)C(=O)[C@@]3(O)C(O)=C1C2=O [A (xHCl), Tigecycline hydrochloride] | Total impurities at ambient conditions | 1.07% |

====

experiment: Physical stability at elevated temperatures (impurities by HPLC); assay type: physicochemical; conditions: ambient conditions
Counter-ions that a name gives are not always drawn.

| compound | Total impurities at ambient conditions |
| --- | --- |
| CN(C)c1cc(NC(=O)CNC(C)(C)C)c(O)c2c1C[C@H]1C[C@H]3[C@H](N(C)C)C(O)=C(C(N)=O)C(=O)[C@@]3(O)C(O)=C1C2=O [WO 2006/128150 V, Tigecycline] | 0.22% |
| CN(C)c1cc(NC(=O)CNC(C)(C)C)c(O)c2c1C[C@H]1C[C@H]3[C@H](N(C)C)C(=O)C(C(N)=O)=C(O)[C@@]3(O)C(=O)C1=C2O [WO 2008/066935 XII, Tigecycline] | 0.4% |
| CN(C)c1cc(NC(=O)CNC(C)(C)C)c(O)c2c1C[C@H]1C[C@H]3[C@H](N(C)C)C(O)=C(C(N)=O)C(=O)[C@@]3(O)C(O)=C1C2=O [C (x2HCl), Tigecycline dihydrochloride] | 0.83% |
| CN(C)c1cc(NC(=O)CNC(C)(C)C)c(O)c2c1C[C@H]1C[C@H]3[C@H](N(C)C)C(O)=C(C(N)=O)C(=O)[C@@]3(O)C(O)=C1C2=O [WO 2006/128150 II, Tigecycline] | 1.6% |
| CN(C)c1cc(NC(=O)CNC(C)(C)C)c(O)c2c1C[C@H]1C[C@H]3[C@H](N(C)C)C(O)=C(C(N)=O)C(=O)[C@@]3(O)C(O)=C1C2=O [WO 2006/128150 IV, Tigecycline] | 0.4% |

====

assay: Physical stability at elevated temperatures (impurities by HPLC); format: physicochemical; details: ambient conditions; hydrochloride
Structures can show the parent of a compound that is named as a salt.
Below is a list of entries, each paired with its recorded 4-Epi-Tigecycline at ambient conditions value.

| compound | 4-Epi-Tigecycline at ambient conditions |
| --- | --- |
| CN(C)c1cc(NC(=O)CNC(C)(C)C)c(O)c2c1C[C@H]1C[C@H]3[C@H](N(C)C)C(O)=C(C(N)=O)C(=O)[C@@]3(O)C(O)=C1C2=O [A (xHCl), Tigecycline hydrochloride] | 0.84% |
| CN(C)c1cc(NC(=O)CNC(C)(C)C)c(O)c2c1C[C@H]1C[C@H]3[C@H](N(C)C)C(O)=C(C(N)=O)C(=O)[C@@]3(O)C(O)=C1C2=O [B (xHCl), Tigecycline hydrochloride] | 0.93% |

These entries and their values trace back to patent US8513224B2.
